molecular target: HIV-1 CAP45.2.00.G3 envelope (Env) on Env.IMC.LucR virus (HIV-1 clade C); experiment: cell-based or functional assay
readout.name: IC50 of virus neutralization (TZM-BL, luciferase) (µg/mL)
Express it in µg/mL; write the number only.

// known answers, use as guide
Germ23_NglycoSA_CysCV (antibody, V domains shown) VH: QVQLVQSGAEVKKPGASVKVSCEASGYRFPDYIIHWIRRAPGQGPEWMGWMNPMGGQVNIPWKFQGRVSMTRDTSIETAYMELRGLRSDDTAVYYCVRDRSNGAGKRFESSNWFLDLWGRGTLVTVSS VL: QSALTQPRSVSGSPGQSVTISCTGTHNLVSWVQHHPGKAPKLMIYDFNKRPSGVPDRFSGSGSGGTASLTISGLQAEDEAEYFCWAYEAFGGGTKLTVL; 0.05
Germ18 (antibody, V domains shown) VH: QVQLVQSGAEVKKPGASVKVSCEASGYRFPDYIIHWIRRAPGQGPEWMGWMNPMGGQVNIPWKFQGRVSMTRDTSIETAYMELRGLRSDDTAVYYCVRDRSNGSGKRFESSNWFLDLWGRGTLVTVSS VL: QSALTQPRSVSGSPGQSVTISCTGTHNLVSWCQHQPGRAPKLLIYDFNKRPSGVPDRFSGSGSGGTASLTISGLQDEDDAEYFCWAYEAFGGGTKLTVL; 0.036

Lab note: next binder to report on.
Qu. # get_value(readout='IC50 of virus neutralization (TZM-BL, luciferase)', item= Germ17 (antibody, V domains shown) VH: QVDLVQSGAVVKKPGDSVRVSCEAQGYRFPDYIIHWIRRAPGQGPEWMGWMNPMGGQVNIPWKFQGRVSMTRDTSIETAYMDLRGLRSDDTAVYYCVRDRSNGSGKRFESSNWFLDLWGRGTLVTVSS VL: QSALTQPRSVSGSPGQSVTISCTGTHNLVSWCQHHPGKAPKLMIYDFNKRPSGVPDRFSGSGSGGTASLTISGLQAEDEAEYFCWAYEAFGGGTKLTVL )
Ans. 0.037
